Assignment: determine reported MIC for the given compounds.

Request: Form field: MIC recorded for CC[C@H]1OC(=O)[C@H](C)[C@@H](O[C@H]2C[C@@](C)(OC)[C@@H](OCCCN(C)CCOc3cc4c5c(c3)c(=O)c(C(=O)O)cn5CCC4)[C@H](C)O2)[C@H](C)[C@@H](O[C@@H]2O[C@H](C)C[C@H](N(C)C)[C@H]2O)[C@](C)(OC)C[C@@H](C)C(=O)[C@@H](C)[C@H]2NC(=O)O[C@@]21C [Example 28] with E. faecalis ATCC 29212 (enter value)
Result: ≤ 1 µg/mL

Request: Item CC[C@@H]1OC(=O)[C@H](C)[C@H](O[C@@H]2C[C@](C)(OC)[C@H](OCCCN(C)CCNc3cc4c(cc3F)c(=O)c(C(=O)O)cn4C3CC3)[C@H](C)O2)[C@@H](C)[C@H](O[C@H]2O[C@@H](C)C[C@@H](N(C)C)[C@H]2O)[C@](C)(OC)C[C@H](C)C(=O)[C@H](C)[C@H]2OC(=O)O[C@@]12C [Example 2] with E. faecalis ATCC 29212 - MIC?
Result: ≤ 1 µg/mL
